biological target: GLP-1R-V2R chimeric (Homo sapiens, UniProt P01275+P43220); construct: the first 440 amino acids of the GLP-1R (Met-1 to Thr-440); vasopressin V2 receptor C-terminal tail, last 29 amino acids, Ala-343 to Ser-371 (AVPR2); assay: Receptor endocytosis assay in U2OS cells co-expressing GLP-1R-V2R and β-arrestin2:GFP
Sequence (P43220 with tags, fused parts or gaps limits assumed): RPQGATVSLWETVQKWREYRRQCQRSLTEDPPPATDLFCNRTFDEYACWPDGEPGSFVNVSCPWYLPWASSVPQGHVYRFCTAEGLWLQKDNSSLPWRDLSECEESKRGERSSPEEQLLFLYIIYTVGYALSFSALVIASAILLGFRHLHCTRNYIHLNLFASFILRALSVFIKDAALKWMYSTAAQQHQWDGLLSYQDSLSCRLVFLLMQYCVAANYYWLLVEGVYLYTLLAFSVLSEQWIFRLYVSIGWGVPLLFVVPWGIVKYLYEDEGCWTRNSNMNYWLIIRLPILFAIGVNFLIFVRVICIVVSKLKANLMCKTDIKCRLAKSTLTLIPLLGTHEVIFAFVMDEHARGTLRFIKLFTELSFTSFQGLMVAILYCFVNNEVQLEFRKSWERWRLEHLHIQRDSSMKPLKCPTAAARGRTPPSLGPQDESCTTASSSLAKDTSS
Sequence (P01275 98-127 limits assumed, stated change not applied): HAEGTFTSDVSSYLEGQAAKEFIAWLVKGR
VALUE_KIND: pEC50
Remember the convention: pEC50 equals -log10 of concentration in molar.

Tested system GLP-1R-V2R chimeric (Homo sapiens, UniProt P01275+P43220); pEC50 recorded for CCCCC/C=C\C/C=C\CCCCCCCC(=O)NC1C(=O)OC(C)C1C (stereo not shown) [Compound 1] was 6.06

---

tested on: H460 cells; experiment: Cell viability test (PrestoBlue) in H460 cells; format: cell-based; conditions: 72-h treatment, FIG. 5
VALUE_KIND: IC50 (µM)
Respond numerically; units are µM and should not be typed.

The value of IC50 measured for the compound N.N.[Cl][Pt][Cl] [cisplatin] turned out to be 6.7

---

target: GLP-1R (UniProt P01275+P32301); construct: endogenous in cells; host or cells: RINm5F cells stably expressing the RG-cAMP BRET sensor; assay: cell-based; assay type: cell-based; conditions: relative to compound 1 = 100
Sequence (P32301 22-463): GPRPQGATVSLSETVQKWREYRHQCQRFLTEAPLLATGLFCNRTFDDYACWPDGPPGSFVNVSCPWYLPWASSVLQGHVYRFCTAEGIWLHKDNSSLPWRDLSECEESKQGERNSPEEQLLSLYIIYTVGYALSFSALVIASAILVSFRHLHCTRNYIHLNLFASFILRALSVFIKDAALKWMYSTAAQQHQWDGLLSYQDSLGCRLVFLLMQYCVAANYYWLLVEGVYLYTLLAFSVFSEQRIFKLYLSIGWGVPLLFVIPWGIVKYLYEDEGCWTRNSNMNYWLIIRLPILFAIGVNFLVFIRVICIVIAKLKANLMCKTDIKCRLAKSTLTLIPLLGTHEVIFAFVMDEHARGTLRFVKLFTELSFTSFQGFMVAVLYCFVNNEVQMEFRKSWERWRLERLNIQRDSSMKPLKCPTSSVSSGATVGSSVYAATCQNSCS
Sequence (P01275 98-127 limits assumed): as the sequence (P01275 98-127 limits assumed, stated change not applied) above
Reported Activity % of compound 1 (potentiation of GLP-1 induced cAMP production) values follow for various compounds
Respond numerically; units are % and should not be typed.

The value of Activity % of compound 1 (potentiation of GLP-1 induced cAMP production) measured for the compound CCCCC/C=C\C/C=C\CCCCCCCC(=O)OCC [Ethyl linoleate] turned out to be 60

The value of Activity % of compound 1 (potentiation of GLP-1 induced cAMP production) measured for the compound CC/C=C\C/C=C\C/C=C\C/C=C\C/C=C\CCCC(=O)NCCO [Eicosapentaenoyl ethanolamide] turned out to be 90

The value of Activity % of compound 1 (potentiation of GLP-1 induced cAMP production) measured for the compound CCCCC/C=C\C/C=C\CCCCCCCC(=O)NCCO [Linoleoyl ethanolamide] turned out to be 90

The value of Activity % of compound 1 (potentiation of GLP-1 induced cAMP production) measured for the compound CCCCC/C=C\C/C=C\C/C=C\CCCCC(=O)OC [γ-linoleic acid methyl ester] turned out to be 25

The value of Activity % of compound 1 (potentiation of GLP-1 induced cAMP production) measured for the compound CC/C=C\C/C=C\C/C=C\CCCCCCCC(=O)N[C@@H](Cc1ccc(O)cc1)C(=O)O turned out to be 70

---
The value of Activity % of compound 1 (potentiation of GLP-1 induced cAMP production) measured for the compound CCCCCC/C=C/C=C\CCCCCCCC(=O)O [9(Z),11(E)-conjugated linoleic acid] turned out to be 25

The value of Activity % of compound 1 (potentiation of GLP-1 induced cAMP production) measured for the compound CCCCC/C=C\C/C=C\CCCCCCCC(=O)NCC(=O)O turned out to be 80

The value of Activity % of compound 1 (potentiation of GLP-1 induced cAMP production) measured for the compound CC/C=C\C/C=C\C/C=C\C/C=C\C/C=C\CCCC(=O)NCCc1c[nH]c2ccc(O)cc12 turned out to be 20

The value of Activity % of compound 1 (potentiation of GLP-1 induced cAMP production) measured for the compound CCCCCCCC/C=C\CCCCCCCC(=O)O turned out to be 35

The value of Activity % of compound 1 (potentiation of GLP-1 induced cAMP production) measured for the compound CCCCC/C=C\C/C=C\CCCCCCCC(=O)NC1C(=O)OC(C)C1C (stereo not drawn) turned out to be 100

The value of Activity % of compound 1 (potentiation of GLP-1 induced cAMP production) measured for the compound CCCCC/C=C\C/C=C\C/C=C\CCCCC(=O)OC [Methyl γ-linolenate] turned out to be 20

The value of Activity % of compound 1 (potentiation of GLP-1 induced cAMP production) measured for the compound CCCCC/C=C/C/C=C/CCCCCCCC(=O)O turned out to be 30

The value of Activity % of compound 1 (potentiation of GLP-1 induced cAMP production) measured for the compound CCCCC/C=C/C/C=C/CCCCCCCC(=O)OC [Methyl linolelaidate] turned out to be 30

The value of Activity % of compound 1 (potentiation of GLP-1 induced cAMP production) measured for the compound CC/C=C\C/C=C\C/C=C\CCCCCCCC(=O)OC turned out to be 15

The value of Activity % of compound 1 (potentiation of GLP-1 induced cAMP production) measured for the compound CC/C=C\C/C=C\C/C=C\C/C=C\C/C=C\C/C=C\CCC(=O)NCCO [Docosahexaenoyl ethanolamide] turned out to be 20

The value of Activity % of compound 1 (potentiation of GLP-1 induced cAMP production) measured for the compound CCCCC/C=C\C=C\CCCCCCCCC(=O)O [10(E),12(Z)-conjugated linoleic acid] turned out to be 30

The value of Activity % of compound 1 (potentiation of GLP-1 induced cAMP production) measured for the compound CC/C=C\C/C=C\C/C=C\C/C=C\C/C=C\CCCC(=O)O turned out to be 60

---

target: GLP-1R (UniProt P01275+P32301); construct: endogenous in cells; test: cell-based; details: dose dependent and saturable; FIG. 2 panel B
VALUE_KIND: EC50
Answer with the value and then the unit.

The value of EC50 measured for the compound CCCCC/C=C\C/C=C\CCCCCCCC(=O)NC1C(=O)OC(C)C1C (stereo not shown) turned out to be 3.7 µM

---

Target: GLP-1R (UniProt P01275+P32301)
Construct: endogenous in cells; host or cells: RINm5F cells stably expressing the RG-cAMP BRET sensor
Test: cell-based
Type: cell-based
Conditions: relative to compound 1 = 100
Procedure: Next day, cells were washed twice with 0.1 ml phenol red-free MEM containing 5 mM HEPES, and incubated in the same medium for 1 h. The medium was replaced with 90 μL the same medium containing 1 mg/ml BSA and 5 μM DeepBlueC. […]
Reported Activity % of compound 1 (potentiation of GLP-1 induced cAMP production) values follow for various molecules
Respond numerically; units are % and should not be typed.

The cases that follow already have their Activity % of compound 1 (potentiation of GLP-1 induced cAMP production) on record.
Tested system GLP-1R (UniProt P01275+P32301); Activity % of compound 1 (potentiation of GLP-1 induced cAMP production) recorded for CC/C=C\C/C=C\C/C=C\C/C=C\C/C=C\C/C=C\CCC(=O)O [Docosahexaenoic acid] was 60

Tested system GLP-1R (UniProt P01275+P32301); Activity % of compound 1 (potentiation of GLP-1 induced cAMP production) recorded for CC/C=C\C/C=C\C/C=C\C/C=C\C/C=C\C/C=C\CCC(=O)NCCc1c[nH]c2ccc(O)cc12 [Docosahexaenoyl serotonin] was 15

---
Tested system GLP-1R (UniProt P01275+P32301); Activity % of compound 1 (potentiation of GLP-1 induced cAMP production) recorded for CC/C=C\C/C=C\C/C=C\CCCCCCCC(=O)O [α-linolenic acid] was 15

Tested system GLP-1R (UniProt P01275+P32301); Activity % of compound 1 (potentiation of GLP-1 induced cAMP production) recorded for CC/C=C/C/C=C/C/C=C/C/C=C/C/C=C/C/C=C/CCC(=O)NCC(=O)O [Docosahexaenoyl glycine] was 15

Tested system GLP-1R (UniProt P01275+P32301); Activity % of compound 1 (potentiation of GLP-1 induced cAMP production) recorded for CCCCC/C=C/C/C=C/CCCCCCCC(=O)OCC(O)CO (stereo not shown) [1-monolinolein] was 80

Tested system GLP-1R (UniProt P01275+P32301); Activity % of compound 1 (potentiation of GLP-1 induced cAMP production) recorded for CCCCCC/C=C/CCCCCCCCCC(=O)O [11-trans-octadecenoic acid] was 10

Tested system GLP-1R (UniProt P01275+P32301); Activity % of compound 1 (potentiation of GLP-1 induced cAMP production) recorded for CCCCC/C=C\C/C=C\CCCCCCCC(=O)OC [linoleic acid methyl ester] was 30

Tested system GLP-1R (UniProt P01275+P32301); Activity % of compound 1 (potentiation of GLP-1 induced cAMP production) recorded for CCCCC/C=C\C/C=C\CCCCCCCC(=O)OC [Methyl cis,cis-9,12-octadecadienoate] was 15

Tested system GLP-1R (UniProt P01275+P32301); Activity % of compound 1 (potentiation of GLP-1 induced cAMP production) recorded for CCCCCC/C=C/C=C/CCCCCCCC(=O)O [9(E),11(E)-conjugated linoleic acid] was 30
